Test system: NCI-H460
test: Concentration of the drug required for 50% growth inhibition against NSC (non small cell) H460 cell line.
Assay type: functional
test.context: Homo sapiens
Task for the reader: assign each of the following molecules its reported GI50.
// return numeric value only (unit: nM, not printed)

(Q) Note down GI50 recorded for CC(=O)OC1CCc2c3c(n(C(C)=O)c21)C(=O)C(N1CC1)=C(C)C3=O (stereo not drawn)
(A) 83.2

(Q) Note down GI50 recorded for CC(=O)OCc1[nH]c2c(c1COC(C)=O)C(=O)C(C)=C(N1CC1)C2=O
(A) 35.5

(Q) Note down GI50 recorded for CC1=C(N2CC2)C(=O)c2c([nH]c(CO)c2CO)C1=O
(A) 10

* * *

Test system: NCI-H460
test: Concentration of the drug required for 50% growth inhibition against NSC (non small cell) H460 cell line.
Format: functional
test.context: Homo sapiens
measure.name: GI50 (nM)
// return numeric value only (unit: nM, not printed)

(Q) Report value only: GI50, NCI-H460, CCOC(=O)c1[nH]c2c(c1CO)C(=O)C(N1CC1)=C(C)C2=O
(A) 10

(Q) Report value only: GI50, NCI-H460, Cn1c(CO)c(CO)c2c1C(=O)C=C(N1CC1)C2=O
(A) 10

(Q) Report value only: GI50, NCI-H460, CC1=C(N2CC2)C(=O)c2c([nH]c3c2CCC3O)C1=O (stereo unspecified)
(A) 10

(Q) Report value only: GI50, NCI-H460, CC1=C(N2CC2)C(=O)c2c(c3c(n2C)C(O)CC3)C1=O (stereo unspecified)
(A) 1260

(Q) Report value only: GI50, NCI-H460, CC(=O)OC1CCc2c1[nH]c1c2C(=O)C(C)=C(N2CC2)C1=O (stereo unspecified)
(A) 112

(Q) Report value only: GI50, NCI-H460, O=C1C(N2CC2)=CC(=O)c2c1[nH]c1c2CCC1O (stereo unspecified)
(A) 7.24

(Q) Report value only: GI50, NCI-H460, CCOC(=O)c1[nH]c2c(c1CO)C(=O)C=C(N1CC1)C2=O
(A) 1580

(Q) Report value only: GI50, NCI-H460, CC1=C(N2CC2)C(=O)c2[nH]c3c(c2C1=O)CCC3O (stereo unspecified)
(A) 10

(Q) Report value only: GI50, NCI-H460, O=C1C(N2CC2)=CC(=O)c2c1[nH]c(CO)c2CO
(A) 138

(Q) Report value only: GI50, NCI-H460, CCOC(=O)c1[nH]c2c(c1COC(C)=O)C(=O)C(N1CC1)=CC2=O
(A) 37.1

(Q) Report value only: GI50, NCI-H460, CCOC(=O)c1[nH]c2c(c1CO)C(=O)C(N1CC1)=CC2=O
(A) 10

* * *

System: NCI-H460
test: Concentration of the drug required for total growth inhibition against NSC H460 cell line.
Format: functional
test.context: Homo sapiens, read-out: Log TGI (converted)
Task for the reader: assign each of the following compounds its reported TGI.
// return numeric value only (unit: nM, not printed)

(Q) Note down TGI recorded for O=C1C(N2CC2)=CC(=O)c2c1[nH]c(CO)c2CO
(A) 1150

(Q) Note down TGI recorded for O=C1C(N2CC2)=CC(=O)c2c1[nH]c1c2CCC1O (stereo not drawn)
(A) 57.5

(Q) Note down TGI recorded for CC1=C(N2CC2)C(=O)c2c([nH]c(CO)c2CO)C1=O
(A) 32.4

Each recorded value in this set is attributed to ChEMBL document CHEMBL1134635.
